Attribution: patent EP4585618A1

molecular target: T1, LILRA2-His (Acro, LI2-H82E9) (human, UniProt Q8N149 24-449); assay: ELISA, coated protein 1 µg/mL, antibody 10 µg/mL
T1 construct: Bought protein. 'Human' stands at the head of the list of coated proteins; not shown: His tag
T1 sequence (Q8N149 24-449 limits assumed): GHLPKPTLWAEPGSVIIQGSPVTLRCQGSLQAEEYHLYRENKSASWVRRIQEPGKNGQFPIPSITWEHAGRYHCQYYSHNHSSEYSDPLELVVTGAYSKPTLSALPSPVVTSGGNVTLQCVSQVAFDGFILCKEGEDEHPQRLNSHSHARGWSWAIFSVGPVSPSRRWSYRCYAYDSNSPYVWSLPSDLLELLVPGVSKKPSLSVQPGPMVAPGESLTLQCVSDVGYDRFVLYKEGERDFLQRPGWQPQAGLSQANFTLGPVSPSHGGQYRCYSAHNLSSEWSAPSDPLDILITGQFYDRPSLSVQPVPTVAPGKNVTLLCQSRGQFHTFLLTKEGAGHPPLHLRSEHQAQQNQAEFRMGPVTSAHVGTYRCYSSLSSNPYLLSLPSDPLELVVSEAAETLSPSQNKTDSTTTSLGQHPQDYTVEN
EXPERIMENTAL_READOUT: absorbance at 450 nm (absorbance at 450 nm)
The response must be a number in absorbance at 450 nm with no trailing unit.

Task item: Endpoint output: absorbance at 450 nm of fully human-derived antibody P2m (antibody, human IgG1, kappa, L234A L235A, V domains shown, Full chains) VH: QVQLVQSGAEVKKPGSSVKVSCKASGYTFTSYDISWVRQAPGQGLEWMGGIIPIFGTANYAQKFQGRVTITADESTSTAYMELSSLRSEDTAVYYCTAGIFLATAYWGQGTLVTVSS VL: DIQMTQSPSSMSASVGDRVTISCQASQDIQNYLNWYQQRPGQAPKLLIYDASTLETGVPSRFSGSGSGTYFTLTISSLQPEDVATYYCQQYENVPITFGQGTRLEIKR . Value?
Reply: 0.0448
